Target: Prostaglandin G/H synthase 2 (Mus musculus)
Sequence (Q05769 whole entry): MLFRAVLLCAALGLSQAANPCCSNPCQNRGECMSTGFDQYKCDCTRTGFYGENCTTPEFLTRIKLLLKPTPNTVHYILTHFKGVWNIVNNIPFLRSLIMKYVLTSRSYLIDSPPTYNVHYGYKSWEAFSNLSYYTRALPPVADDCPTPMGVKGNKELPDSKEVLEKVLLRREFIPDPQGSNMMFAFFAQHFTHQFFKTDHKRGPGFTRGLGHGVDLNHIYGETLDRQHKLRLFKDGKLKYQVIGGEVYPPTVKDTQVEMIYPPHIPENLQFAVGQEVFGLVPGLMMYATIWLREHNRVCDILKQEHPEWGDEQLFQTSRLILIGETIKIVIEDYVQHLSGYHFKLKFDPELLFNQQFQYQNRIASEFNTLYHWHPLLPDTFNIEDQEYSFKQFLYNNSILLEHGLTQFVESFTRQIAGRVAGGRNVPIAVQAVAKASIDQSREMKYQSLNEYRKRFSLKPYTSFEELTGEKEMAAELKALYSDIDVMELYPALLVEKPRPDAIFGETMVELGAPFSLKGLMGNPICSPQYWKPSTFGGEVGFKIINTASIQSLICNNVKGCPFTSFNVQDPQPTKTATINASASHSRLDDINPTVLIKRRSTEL
Test: Inhibition of purified mouse COX-2 assessed as inhibition of PGE2-G/PGD2-G formation preincubated for 3 mins before 2-AG substrate addition measured after 30 seconds by LC-MS-MS method
pIC50: −log10 of the molar value.
VALUE KIND: pIC50

*Q* Give pIC50 for Cc1ccc(Nc2ccccc2Cl)c(CC(=O)O)c1 tested on Prostaglandin G/H synthase 2 (Mus musculus).
*A* 7.22

*Q* Output reported pIC50 of the molecule Cc1ccc(Nc2c(Cl)cc(Cl)cc2Cl)c(CC(=O)O)c1 on Prostaglandin G/H synthase 2 (Mus musculus).
*A* 7.15

*Q* Report the value of pIC50 obtained on Prostaglandin G/H synthase 2 (Mus musculus) for Cc1ccc(Nc2ccccc2F)c(CC(=O)O)c1 .
*A* 5.74

*Q* Give the observed pIC50 of Cc1ccc(Nc2c(F)cccc2F)c(CC(=O)O)c1 for Prostaglandin G/H synthase 2 (Mus musculus).
*A* 6.00

*Q* Report pIC50 from Prostaglandin G/H synthase 2 (Mus musculus) testing of O=C(O)Cc1ccccc1Nc1c(F)cccc1Cl
*A* 7.40

a. O=C(O)Cc1ccccc1Nc1ccccc1Cl
b. O=C(O)Cc1ccccc1Nc1c(Cl)cc(Br)cc1Cl
c. O=C(O)Cc1ccccc1Nc1c(F)cccc1F
d. Cc1ccc(Nc2c(Cl)cccc2Cl)c(CC(=O)O)c1
*Q* In this exercise, place the 4 molecules in ascending sequence of their recorded pIC50. Please, when replying, give the labels in the order that was requested.
*A* a, c, b, d
(a: 5.41, c: 5.92, b: 7.22, d: 7.52)
